Reference for the values: ChEMBL document CHEMBL3352167

# assay name: Displacement of [3H]DTG from sigma2 receptor in guinea pig brain membrane after 120 mins by scintillation counting analysis
# Format: cell membranes, Cavia porcellus
A collection of compounds and their measured pKi
Quick note: pKi values are minus log10 of concentrations in mol/L.

Reported pKi for c1ccc(CCCN2CCN(CCc3ccc4c(c3)OCCCO4)CC2)cc1 : what is it?
7.28

Reported pKi for COc1cc(CCN2CCN(CCCc3ccccc3)CC2)ccc1OC/C=C\I : what is it?
7.78

Reported pKi for Clc1ccc(CCN2CCN(CCCc3ccccc3)CC2)cc1Cl : what is it?
7.41

New cases:
Reported pKi for CCCOc1ccc(CCN2CCN(CCCc3ccccc3)CC2)cc1OC : what is it?
7.48

Reported pKi for COc1cc(CCN2CCN(CCCc3ccccc3)CC2)ccc1OCCc1ccccc1 : what is it?
7.78

Reported pKi for COc1cc(CCN2CCN(CCCc3ccccc3)CC2)ccc1OC/C=C/I : what is it?
7.74

Reported pKi for COc1cc(CCN2CCN(CCCc3ccccc3)CC2)ccc1OCF : what is it?
6.60

Reported pKi for COc1ccc(CCN2CCN(CCCc3ccccc3)CC2)cc1OC [[11C]SA4503] : what is it?
7.20

Reported pKi for c1ccc(CCCN2CCN(CCc3ccc4c(c3)OCCO4)CC2)cc1 : what is it?
7.45

Reported pKi for C=CCOc1ccc(CCN2CCN(CCCc3ccccc3)CC2)cc1OC : what is it?
7.38

Reported pKi for COc1cccc(CCN2CCN(CCCc3ccccc3)CC2)c1 : what is it?
7.99
